System: A549
assay-explanation: Antiproliferative activity against human A549 cells assessed as inhibition of cell growth measured after 72 hrs by MTT assay
Assay type: functional, cell-based
experimental-conditions: A549, 72 h
Each entry below carries its reported IC50.
metric-name: IC50 (µM)

compound	metric-name	qualifying-sign	readout-value
CC(C)(C)c1cc2c(O)c(c1)Cc1cc(C(C)(C)C)cc(c1OC/C=C/C(=O)NCCCCCO)Cc1cc(C(C)(C)C)cc(c1O)Cc1cc(C(C)(C)C)cc(c1OC/C=C/C(=O)NCCCCCO)C2	IC50	>	100
CC(Oc1c2cc(C(C)(C)C)cc1Cc1cc(C(C)(C)C)cc(c1O)Cc1cc(C(C)(C)C)cc(c1OC(C)C(=O)NCCCO)Cc1cc(C(C)(C)C)cc(c1O)C2)C(=O)NCCCO (stereo not given)	IC50	=	1.76
CC(Oc1c2cc(C(C)(C)C)cc1Cc1cc(C(C)(C)C)cc(c1O)Cc1cc(C(C)(C)C)cc(c1OC(C)C(=O)N(CCO)CCO)Cc1cc(C(C)(C)C)cc(c1O)C2)C(=O)N(CCO)CCO (stereo not given)	IC50	=	3.75
CC(C)(C)c1cc2c(O)c(c1)Cc1cc(C(C)(C)C)cc(c1OC/C=C/C(=O)NCCCO)Cc1cc(C(C)(C)C)cc(c1O)Cc1cc(C(C)(C)C)cc(c1OC/C=C/C(=O)NCCCO)C2	IC50	=	3.59
CC(C)(C)c1cc2c(O)c(c1)Cc1cc(C(C)(C)C)cc(c1OC/C=C/C(=O)NCCO)Cc1cc(C(C)(C)C)cc(c1O)Cc1cc(C(C)(C)C)cc(c1OC/C=C/C(=O)NCCO)C2	IC50	=	6.29

----------
Test system: A549
assay-explanation: Antiproliferative activity against human A549 cells assessed as inhibition of cell growth measured after 72 hrs by MTT assay
Assay type: functional, cell-based
experimental-conditions: A549, 72 h
Each entry below carries its reported IC50.
metric-name: IC50 (µM)

molecule	qualifying-sign	readout-value
CCC(Oc1c2cc(C(C)(C)C)cc1Cc1cc(C(C)(C)C)cc(c1O)Cc1cc(C(C)(C)C)cc(c1OC(CC)C(=O)NCCCCCO)Cc1cc(C(C)(C)C)cc(c1O)C2)C(=O)NCCCCCO (stereo not given)	=	3.78
CC(C)(C)c1cc2c(O)c(c1)Cc1cc(C(C)(C)C)cc(c1OCCCC(=O)NCCO)Cc1cc(C(C)(C)C)cc(c1O)Cc1cc(C(C)(C)C)cc(c1OCCCC(=O)NCCO)C2	=	13.7
CC(C)(C)c1cc2c(O)c(c1)Cc1cc(C(C)(C)C)cc(c1OCCCCCC(=O)NCCCCCO)Cc1cc(C(C)(C)C)cc(c1O)Cc1cc(C(C)(C)C)cc(c1OCCCCCC(=O)NCCCCCO)C2	>	100
CC(C)(C)c1cc2c(O)c(c1)Cc1cc(C(C)(C)C)cc(c1OCCCC(=O)N(CCO)CCO)Cc1cc(C(C)(C)C)cc(c1O)Cc1cc(C(C)(C)C)cc(c1OCCCC(=O)N(CCO)CCO)C2	=	3.81
CC(C)(C)c1cc2c(O)c(c1)Cc1cc(C(C)(C)C)cc(c1OC/C=C/C(=O)N(CCO)CCO)Cc1cc(C(C)(C)C)cc(c1O)Cc1cc(C(C)(C)C)cc(c1OC/C=C/C(=O)N(CCO)CCO)C2	=	7.04
